These measurements were taken from patent US10669235B2.

Quick reference: Cell viability at 300 nM (%) of the listed items.
- Test system: MRC5 cells
- protocol_description: Cell viability assay in MRC5 cells (MTT)
- condition_set: 300 nM
Structures can show the parent of a compound that is named as a salt.
quantity_kind: Cell viability at 300 nM (%)

[[record]]
molecule = "COCCN1CCC(NC(=O)c2ccc(N/C(=C3\\C(=O)Nc4cc(C(=O)OC)c(C)cc43)c3ccccc3)cc2)CC1"
experimental_system = "MRC5 cells"
quantity_kind = "Cell viability at 300 nM (%)"
value_reported = 91.7

[[record]]
molecule = "COC(=O)c1cc2c(cc1C)/C(=C(/Nc1ccc(C(=O)NCC3CCN(C)CC3)cc1)c1ccccc1)C(=O)N2 [Example 3, formate]"
experimental_system = "MRC5 cells"
quantity_kind = "Cell viability at 300 nM (%)"
value_reported = 86.1

[[record]]
molecule = "COC(=O)c1cc2c(cc1C)/C(=C(/Nc1ccc(C(=O)NCCC(=O)N3CCN(C)CC3)cc1)c1ccccc1)C(=O)N2"
experimental_system = "MRC5 cells"
quantity_kind = "Cell viability at 300 nM (%)"
value_reported = 118.9

[[record]]
molecule = "COC(=O)c1cc2c(cc1C)/C(=C(/Nc1ccc(C(=O)NCCN3CCN(S(C)(=O)=O)CC3)cc1)c1ccccc1)C(=O)N2"
experimental_system = "MRC5 cells"
quantity_kind = "Cell viability at 300 nM (%)"
value_reported = 78.4


----------
- protocol_description: Pharmacokinetic measurements in rats (i.v., i.t., oral)
- Type: in vivo
- condition_set: rat, i.v. dose 0.1 (nintedanib 0.42), 1.5 h
Where a name gives a salt, the structure may show the parent alone.
quantity_kind: BAL % administered dose at time 1.5 h (%)

[[record]]
molecule = "COC(=O)c1cc2c(cc1C)/C(=C(/Nc1ccc(C(=O)NCC3CCN(C)CC3)cc1)c1ccccc1)C(=O)N2 [Example 3, formate]"
quantity_kind = "BAL % administered dose at time 1.5 h"
value_reported = 0.1

[[record]]
molecule = "COC(=O)c1cc2c(cc1C)/C(=C(/Nc1ccc(C(=O)NC3CCN(C)CC3)cc1)c1ccccc1)C(=O)N2 [Example 18, formate]"
quantity_kind = "BAL % administered dose at time 1.5 h"
value_reported = 0

[[record]]
molecule = "COC(=O)c1cc2c(cc1C)/C(=C(/Nc1ccc(C(=O)NCCN3CCN(C)CC3)cc1)c1ccccc1)C(=O)N2 [Example 4]"
quantity_kind = "BAL % administered dose at time 1.5 h"
value_reported = 0.04

[[record]]
molecule = "COC(=O)c1ccc2c(c1)NC(=O)/C2=C(\\Nc1ccc(N(C)C(=O)CN2CCN(C)CC2)cc1)c1ccccc1 [Nintedanib, reference compound]"
quantity_kind = "BAL % administered dose at time 1.5 h"
value_reported = 0.03


----------
// values below are reported recovery at 5 hr, 10 μM
- protocol_description: PAMPA permeability assay
- Format: in vitro ADME
- condition_set: pH 7, PAMPA
quantity_kind: recovery at 5 hr, 10 μM (%)

[[record]]
compound = "CNC(=O)CN1CCN(C(=O)c2ccc(N/C(=C3\\C(=O)Nc4cc(C(=O)OC)c(C)cc43)c3ccccc3)cc2)CC1 [Example 11]"
value_reported = 93.2

[[record]]
compound = "COC(=O)c1cc2c(cc1C)/C(=C(/Nc1ccc(S(=O)(=O)NCCN3CCN(C)CC3)cc1)c1ccccc1)C(=O)N2 [Example 1]"
value_reported = 92

[[record]]
compound = "COC(=O)c1cc2c(cc1C)/C(=C(/Nc1ccc(C(=O)N3CCC(O)(CN4CCOCC4)CC3)cc1)c1ccccc1)C(=O)N2 [Example 45]"
value_reported = 77

[[record]]
compound = "COC(=O)c1cc2c(cc1C)/C(=C(/Nc1ccc(C(=O)NCCCN3CCOCC3)cc1)c1ccccc1)C(=O)N2 [Example 29]"
value_reported = 72.1


----------
Measured pIC50, listed per entry.
- experimental_system: PDGFRβ (Homo sapiens (Human))
- Sequence (P09619 33-1106): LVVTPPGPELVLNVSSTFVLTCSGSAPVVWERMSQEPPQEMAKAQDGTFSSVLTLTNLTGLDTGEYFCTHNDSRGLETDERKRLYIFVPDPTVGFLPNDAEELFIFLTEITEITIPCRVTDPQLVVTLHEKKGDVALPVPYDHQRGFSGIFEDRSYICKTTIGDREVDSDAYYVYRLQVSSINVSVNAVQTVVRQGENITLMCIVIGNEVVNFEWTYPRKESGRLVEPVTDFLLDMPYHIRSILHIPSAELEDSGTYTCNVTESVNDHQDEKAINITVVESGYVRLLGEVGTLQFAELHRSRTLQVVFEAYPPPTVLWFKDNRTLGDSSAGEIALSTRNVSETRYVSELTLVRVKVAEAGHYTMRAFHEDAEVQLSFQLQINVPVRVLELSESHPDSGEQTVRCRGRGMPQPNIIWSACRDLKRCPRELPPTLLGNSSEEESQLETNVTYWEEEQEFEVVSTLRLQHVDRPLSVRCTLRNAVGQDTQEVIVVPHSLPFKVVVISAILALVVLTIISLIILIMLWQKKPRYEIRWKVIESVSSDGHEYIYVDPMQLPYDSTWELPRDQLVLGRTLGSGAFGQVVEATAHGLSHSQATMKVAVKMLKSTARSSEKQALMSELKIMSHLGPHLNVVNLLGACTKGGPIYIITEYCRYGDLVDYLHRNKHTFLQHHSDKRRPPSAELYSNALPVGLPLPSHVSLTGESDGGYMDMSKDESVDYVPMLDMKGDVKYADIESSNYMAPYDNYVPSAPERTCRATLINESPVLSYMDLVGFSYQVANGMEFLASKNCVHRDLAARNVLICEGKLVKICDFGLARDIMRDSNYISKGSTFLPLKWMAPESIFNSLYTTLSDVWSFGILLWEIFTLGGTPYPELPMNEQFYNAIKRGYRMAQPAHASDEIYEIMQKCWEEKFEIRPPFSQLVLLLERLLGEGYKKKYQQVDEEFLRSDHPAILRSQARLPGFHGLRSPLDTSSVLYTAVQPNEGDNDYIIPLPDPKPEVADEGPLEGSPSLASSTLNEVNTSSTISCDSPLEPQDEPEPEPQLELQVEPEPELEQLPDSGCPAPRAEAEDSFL
- protocol_description: PDGF-BB induced phosphorylation of PDGFRβ in fibroblasts (MRC5, HTRF)
- Assay type: cell-based
- condition_set: MRC5 cells, PDGFBB stimulation; read-out: PDGFBB-induced PDGFRβ phosphorylation in MRC5 cells (IC50)
pIC50: −log10 of the molar value.
quantity_kind: pIC50

[[record]]
line_notation = "COC(=O)c1cc2c(cc1C)/C(=C(/Nc1ccc(C(=O)N3CCC(CO)(CN(C)C)CC3)cc1)c1ccccc1)C(=O)N2"
experimental_system = "PDGFRβ (Homo sapiens (Human))"
value_reported = 8.77

[[record]]
line_notation = "COC(=O)c1cc2c(cc1C)/C(=C(/Nc1ccc(C(=O)NCCC(=O)N3CCN(C)CC3)cc1)c1ccccc1)C(=O)N2"
experimental_system = "PDGFRβ (Homo sapiens (Human))"
value_reported = 7.80

[[record]]
line_notation = "COC(=O)c1cc2c(cc1C)/C(=C(/Nc1ccc(C(=O)NCC(=O)N3CCN(C)CC3)cc1)c1ccccc1)C(=O)N2"
experimental_system = "PDGFRβ (Homo sapiens (Human))"
value_reported = 7.92

[[record]]
line_notation = "COC(=O)c1cc2c(cc1C)/C(=C(/Nc1ccc(S(=O)(=O)NCCN3CCN(C)CC3)cc1)c1ccccc1)C(=O)N2"
experimental_system = "PDGFRβ (Homo sapiens (Human))"
value_reported = 7.59


----------
- protocol_description: Pharmacokinetic measurements in rats (i.v., i.t., oral)
- Format: in vivo
- condition_set: male, CD, rat, lung, iv; read-out: lung concentration (nM) at time 6 h
Structures can show the parent of a compound that is named as a salt.
Reported concentration at 6 h values for the following compounds.
quantity_kind: concentration at 6 h (nM)

[[record]]
compound = "COC(=O)c1cc2c(cc1C)/C(=C(/Nc1ccc(C(=O)NCCN3CCNC(=O)C3)cc1)c1ccccc1)C(=O)N2 [Example 9]"
units = "nM"
value_reported = 235

[[record]]
compound = "COC(=O)c1cc2c(cc1C)/C(=C(/Nc1ccc(C(=O)NCCN3CCN(C)CC3)cc1)c1ccccc1)C(=O)N2 [Example 4]"
units = "nM"
value_reported = 156

[[record]]
compound = "COC(=O)c1cc2c(cc1C)/C(=C(/Nc1ccc(C(=O)NC3CCN(C)CC3)cc1)c1ccccc1)C(=O)N2 [Example 18, formate]"
units = "nM"
value_reported = 201

[[record]]
compound = "COC(=O)c1cc2c(cc1C)/C(=C(/Nc1ccc(C(=O)NCC3CCN(C)CC3)cc1)c1ccccc1)C(=O)N2 [Example 3, formate]"
units = "nM"
value_reported = 321


----------
- System: MRC5 cells
- protocol_description: Cell viability assay in MRC5 cells (MTT)
- condition_set: 1000 nM
Where a name gives a salt, the structure may show the parent alone.
quantity_kind: Cell viability at 1000 nM (%)

[[record]]
compound = "COC(=O)c1cc2c(cc1C)/C(=C(/Nc1ccc(C(=O)NCCN(C)C)cc1)c1ccccc1)C(=O)N2 [Example 2, formate]"
experimental_system = "MRC5 cells"
value_reported = "68.5%"

[[record]]
compound = "CNC(=O)CN(C)CCNC(=O)c1ccc(N/C(=C2\\C(=O)Nc3cc(C(=O)OC)c(C)cc32)c2ccccc2)cc1"
experimental_system = "MRC5 cells"
value_reported = "92.4%"

[[record]]
compound = "COC(=O)c1cc2c(cc1C)/C(=C(/Nc1ccc(C(=O)NCCN3CCNC(=O)C3)cc1)c1ccccc1)C(=O)N2"
experimental_system = "MRC5 cells"
value_reported = "97.5%"

[[record]]
compound = "COC(=O)c1cc2c(cc1C)/C(=C(/Nc1ccc(C(=O)NCCCN(C)C)cc1)c1ccccc1)C(=O)N2"
experimental_system = "MRC5 cells"
value_reported = "48.8%"

[[record]]
compound = "COCCNC(=O)CN1CCN(C(=O)c2ccc(N/C(=C3\\C(=O)Nc4cc(C(=O)OC)c(C)cc43)c3ccccc3)cc2)CC1"
experimental_system = "MRC5 cells"
value_reported = "36.7%"

[[record]]
compound = "COC(=O)c1cc2c(cc1C)/C(=C(/Nc1ccc(C(=O)NCCCN3CCN(C)CC3)cc1)c1ccccc1)C(=O)N2 [Example 21, formate]"
experimental_system = "MRC5 cells"
value_reported = "98.8%"

[[record]]
compound = "COC(=O)c1cc2c(cc1C)/C(=C(/Nc1ccc(C(=O)NCC3(N(C)C)CCC3)cc1)c1ccccc1)C(=O)N2"
experimental_system = "MRC5 cells"
value_reported = "82.9%"

[[record]]
compound = "COC(=O)c1cc2c(cc1C)/C(=C(/Nc1ccc(C(=O)N3CCC(C(=O)NCCN(C)C)CC3)cc1)c1ccccc1)C(=O)N2"
experimental_system = "MRC5 cells"
value_reported = "34.3%"

[[record]]
compound = "CNC(=O)CN1CCN(C(=O)c2ccc(N/C(=C3\\C(=O)Nc4cc(C(=O)OC)c(C)cc43)c3ccccc3)cc2)CC1"
experimental_system = "MRC5 cells"
value_reported = "28.5%"

[[record]]
compound = "COC(=O)c1cc2c(cc1C)/C(=C(/Nc1ccc(C(=O)NCC3(N(C)C)CCOCC3)cc1)c1ccccc1)C(=O)N2"
experimental_system = "MRC5 cells"
value_reported = "69.6%"

[[record]]
compound = "COC(=O)c1cc2c(cc1C)/C(=C(/Nc1ccc(C(=O)N3CCC(C(N)=O)(N4CCCCC4)CC3)cc1)c1ccccc1)C(=O)N2"
experimental_system = "MRC5 cells"
value_reported = "58.5%"

[[record]]
compound = "COC(=O)c1cc2c(cc1C)/C(=C(/Nc1ccc(S(=O)(=O)N3CCN(CCO)CC3)cc1)c1ccccc1)C(=O)N2 [Example 26, formate]"
experimental_system = "MRC5 cells"
value_reported = "57.6%"

[[record]]
compound = "COC(=O)c1cc2c(cc1C)/C(=C(/Nc1ccc(C(=O)NCCCN3CCOCC3)cc1)c1ccccc1)C(=O)N2"
experimental_system = "MRC5 cells"
value_reported = "60.8%"

[[record]]
compound = "COC(=O)c1cc2c(cc1C)/C(=C(/Nc1ccc(C(=O)N3CC[C@@H](CN(C)C)[C@H](O)C3)cc1)c1ccccc1)C(=O)N2"
experimental_system = "MRC5 cells"
value_reported = "19.8%"

